System: VDR:RXRa (NR concentration 270 nM, RXRa partner concentration 90 nM)
Test: PBM binding z-score (relative to random genomic background probes); higher = stronger binding; sequences stand for … in GC…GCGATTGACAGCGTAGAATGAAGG
Response key: yes means PBM binding z-score >= 3; no means PBM binding z-score < 3.

Please review the following examples before continuing.
GATGCTAGGTCAGGTTGGTCAGCTAACGGGTACG ... no
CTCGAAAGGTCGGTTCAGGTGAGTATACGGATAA ... no
ATCTCTAGGTAAAAGTTCAGTGATTCCCGAGGAT ... no
TGTCAAAGTTCAAAGGTAACGGAAGTATCCACAC ... yes
TTACCAAGGTGAGGGTCGTTGATCCCTCTGTAGA ... no

Data request: Please check the record TCATATAGGTCAACAGGTGAAAGTCCGTAAGTTA and state if its PBM binding z-score is at or above 3.
Data returned: yes
